- testSystem: Melanocortin receptor 4 (Homo sapiens, UniProt P32245)
- Sequence (P32245 whole entry): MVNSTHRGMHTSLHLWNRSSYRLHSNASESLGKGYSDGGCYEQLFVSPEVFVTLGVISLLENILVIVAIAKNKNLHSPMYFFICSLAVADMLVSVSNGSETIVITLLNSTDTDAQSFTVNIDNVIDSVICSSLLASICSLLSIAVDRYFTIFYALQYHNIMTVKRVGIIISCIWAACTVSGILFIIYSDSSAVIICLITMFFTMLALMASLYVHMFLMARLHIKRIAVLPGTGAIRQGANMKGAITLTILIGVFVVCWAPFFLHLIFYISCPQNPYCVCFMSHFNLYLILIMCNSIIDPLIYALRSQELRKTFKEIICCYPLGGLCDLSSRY
- measurementNotes: Agonist activity at human MC4R expressed in CHO cells assessed as cAMP release relative to alpha-MSH
- Format: functional, cell-based
Exercise: for every item that follows, state its recorded %max.
Provide only the numeric value, understood in %.

Recorded %max (molecule CC[C@H](NC(C)=O)c1cc(Cl)ccc1C1CCN(C(=O)[C@@H]2CN(C(C)(C)C)C[C@H]2c2ccc(C(F)(F)F)cc2)CC1 ): 90

Recorded %max (molecule CC[C@H](NC(C)=O)c1cc(Cl)ccc1C1CCN(C(=O)[C@H]2CN(C(C)(C)C)C[C@@H]2c2cc(F)c(F)cc2F)CC1 ): 50

Recorded %max (molecule CC[C@H](NC(C)=O)c1cc(Cl)ccc1C1CCN(C(=O)[C@@H]2CN(C(C)(C)C)C[C@H]2c2ccc(F)cc2F)CC1 ): 108

Recorded %max (molecule CC[C@H](NC(C)=O)c1cc(Cl)ccc1C1CCN(C(=O)[C@@H]2CN(C(C)(C)C)C[C@H]2c2ccc(C(F)(F)F)cc2F)CC1 ): 99
